Entries and their measured ΔTm follow.
target: CREB-binding protein (Homo sapiens); assay: Binding affinity to CBP (unknown origin) assessed as change in melting temperature at 100 uM incubated for 30 mins by thermal shift assay
Mention the unit after the number when you answer.

Consider the following illustrative entries.
Find the measured ΔTm of `Cc1cc(F)cc(C)c1Oc1ccc(C(C)(C)O)cc1-c1cn(C)c(=O)c2cc(-c3cnc(C4CCCCC4)[nH]3)oc12` and report it. 0.5 °C

Find the measured ΔTm of `Cc1cc(F)cc(C)c1Oc1ccc(C(C)(C)O)cc1-c1cn(C)c(=O)c2cc(-c3cnc(C4CCC4)[nH]3)oc12` and report it. 0.5 °C

Find the measured ΔTm of `Cc1cc(F)cc(C)c1Oc1ccc(C(C)(C)O)cc1-c1cn(C)c(=O)c2cc(-c3cnc(C4CCCC4)[nH]3)oc12` and report it. 0.75 °C

More entries:
Find the measured ΔTm of `Cc1cc(F)cc(C)c1Oc1ccc(C(C)(C)O)cc1-c1cn(C)c(=O)c2cc(-c3cnc(C4CC4)[nH]3)oc12` and report it. 1 °C

----------
target: Bromodomain-containing protein 4 (Homo sapiens); assay: Inhibition of C-terminal His6-tagged BRD4 BD1 (unknown origin) using H-YSGRGK(Ac)GGK(Ac)GLGK(Ac)-GGAK(Ac)RHRK-Biotin-OH as substrate incubated for 1 hrs by HTRF assay
result type: pIC50
Scale note: pIC50 = -log10(concentration in M).

Find the measured pIC50 of `Cc1cc(F)cc(C)c1Oc1ccc(C(C)(C)O)cc1-c1cn(C)c(=O)c2cc(-c3cnc(C4CCC4)[nH]3)oc12` and report it. 6.82

Find the measured pIC50 of `CCS(=O)(=O)Nc1ccc(Oc2ccc(F)cc2F)c(-c2cn(C)c(=O)c3cc(-c4cnc(C5CC5)[nH]4)oc23)c1` and report it. 9.15

Find the measured pIC50 of `CCS(=O)(=O)Nc1ccc(Oc2ccc(F)cc2F)c(-c2cn(C)c(=O)c3cc(-c4ccccc4)oc23)c1` and report it. 8.62

Find the measured pIC50 of `Cc1cc(-c2cc3c(=O)n(C)cc(-c4cc(NC(=O)C5CC5)ccc4Oc4ccc(F)cc4F)c3o2)cc(C)c1OCCO` and report it. 8.17

Find the measured pIC50 of `Cc1cc(-c2cc3c(=O)n(C)cc(-c4cc(C(C)(C)O)ccc4Oc4ccc(F)cc4F)c3o2)cc(C)c1OCCO` and report it. 8.80

Find the measured pIC50 of `CC(=O)Nc1ccc(Oc2ccc(F)cc2F)c(-c2cn(C)c(=O)c3cc(-c4cc(C)c(OCCO)c(C)c4)oc23)c1` and report it. 9.28

Find the measured pIC50 of `Cc1cc(-c2cc3c(=O)n(C)cc(-c4cc(CO)ccc4Oc4ccc(F)cc4F)c3o2)cc(C)c1OCCO` and report it. 8.39

Find the measured pIC50 of `Cc1cc(F)cc(C)c1Oc1ccc(C(C)(C)O)cc1-c1cn(C)c(=O)c2cc(-c3cnc(C4CCOCC4)[nH]3)oc12` and report it. 7.22

----------
target: SWI/SNF-related matrix-associated actin-dependent regulator of chromatin subfamily A member 4 (Homo sapiens); assay: Binding affinity to SMARCA4 (unknown origin) assessed as change in melting temperature at 100 uM incubated for 30 mins by thermal shift assay
result type: ΔTm
Mention the unit after the number when you answer.

Consider the following illustrative entries.
Find the measured ΔTm of `Cc1cc(F)cc(C)c1Oc1ccc(C(C)(C)O)cc1-c1cn(C)c(=O)c2cc(-c3cnc(C4CCCC4)[nH]3)oc12` and report it. 0 °C

Find the measured ΔTm of `Cc1cc(F)cc(C)c1Oc1ccc(C(C)(C)O)cc1-c1cn(C)c(=O)c2cc(-c3cnc(C4CCCCC4)[nH]3)oc12` and report it. 0 °C

Find the measured ΔTm of `Cc1cc(F)cc(C)c1Oc1ccc(C(C)(C)O)cc1-c1cn(C)c(=O)c2cc(-c3cnc(C4CCC4)[nH]3)oc12` and report it. -0.5 °C

Attention now turns to another entry.
Find the measured ΔTm of `Cc1cc(F)cc(C)c1Oc1ccc(C(C)(C)O)cc1-c1cn(C)c(=O)c2cc(-c3cnc(C4CC4)[nH]3)oc12` and report it. 0.25 °C

----------
target: Bromodomain-containing protein 3 (Homo sapiens, UniProt Q15059); test: Binding affinity to His6-fused BRD3 BD2 (unknown origin) assessed as dissociation constant in PBS incubated for 1 hrs by biolayer interferometry analysis
Sequence (Q15059 whole entry, the tested form may be a part): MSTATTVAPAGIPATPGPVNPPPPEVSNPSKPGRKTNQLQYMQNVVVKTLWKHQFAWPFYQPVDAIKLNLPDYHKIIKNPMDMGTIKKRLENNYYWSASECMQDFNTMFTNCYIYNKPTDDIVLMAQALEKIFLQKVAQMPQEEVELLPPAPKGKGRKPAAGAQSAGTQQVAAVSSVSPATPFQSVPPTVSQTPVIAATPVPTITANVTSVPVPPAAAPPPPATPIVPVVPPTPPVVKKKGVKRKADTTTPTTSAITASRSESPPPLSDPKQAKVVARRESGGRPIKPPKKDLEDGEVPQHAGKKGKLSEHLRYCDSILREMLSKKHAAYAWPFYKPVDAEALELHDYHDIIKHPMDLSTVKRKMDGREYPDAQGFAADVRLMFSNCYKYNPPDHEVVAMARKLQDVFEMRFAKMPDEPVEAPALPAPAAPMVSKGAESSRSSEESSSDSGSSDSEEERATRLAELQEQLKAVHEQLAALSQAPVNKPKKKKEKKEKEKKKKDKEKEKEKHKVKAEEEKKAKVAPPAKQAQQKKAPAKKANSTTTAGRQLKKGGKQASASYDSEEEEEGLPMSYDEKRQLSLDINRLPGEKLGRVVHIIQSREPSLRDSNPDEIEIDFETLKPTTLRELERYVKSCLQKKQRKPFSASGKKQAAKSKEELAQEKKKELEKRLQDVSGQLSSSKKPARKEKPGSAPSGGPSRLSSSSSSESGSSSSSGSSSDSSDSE
result type: Kd (nM)
Return type: number; implicit unit nM.

Find the measured Kd of `Cc1cc(F)cc(C)c1Oc1ccc(C(C)(C)O)cc1-c1cn(C)c(=O)c2cc(-c3cnc(C4CCCCC4)[nH]3)oc12` and report it. 89.5

Find the measured Kd of `Cc1cc(F)cc(C)c1Oc1ccc(C(C)(C)O)cc1-c1cn(C)c(=O)c2cc(-c3cnc(C4CCCC4)[nH]3)oc12` and report it. 26.3

----------
tested on: MCF7; test: Antiproliferative activity against human MCF7 cells assessed as cell growth inhibition incubated for 96 hrs by Cell titre Glo-luminiscence cell viability assay; assay type: functional, cell-based; conditions: MCF7, 96 h
result type: IC50
Mention the unit after the number when you answer.

Find the measured IC50 of `Cc1cc(F)cc(C)c1Oc1ccc(C(C)(C)O)cc1-c1cn(C)c(=O)c2cc(-c3cnc(C4CCCC4)[nH]3)oc12` and report it. 1 µM

----------
target: Bromodomain-containing protein 9 (Homo sapiens); assay: Binding affinity to His6-fused BRD9 (unknown origin) assessed as change in melting temperature at 100 uM incubated for 30 mins by thermal shift assay
result type: ΔTm (°C)
Return type: number; implicit unit °C.

Find the measured ΔTm of `Cc1cc(F)cc(C)c1Oc1ccc(C(C)(C)O)cc1-c1cn(C)c(=O)c2cc(-c3cnc(C4CCCCC4)[nH]3)oc12` and report it. -1.25

Find the measured ΔTm of `Cc1cc(F)cc(C)c1Oc1ccc(C(C)(C)O)cc1-c1cn(C)c(=O)c2cc(-c3cnc(C4CCC4)[nH]3)oc12` and report it. -0.5

Find the measured ΔTm of `Cc1cc(F)cc(C)c1Oc1ccc(C(C)(C)O)cc1-c1cn(C)c(=O)c2cc(-c3cnc(C4CC4)[nH]3)oc12` and report it. -2

More entries:
Find the measured ΔTm of `Cc1cc(F)cc(C)c1Oc1ccc(C(C)(C)O)cc1-c1cn(C)c(=O)c2cc(-c3cnc(C4CCCC4)[nH]3)oc12` and report it. -0.75

----------
Entries and their measured IC50 follow.
target: Bromodomain-containing protein 4 (Homo sapiens); assay: Inhibition of C-terminal His6-tagged BRD4 BD2 (unknown origin) using H-YSGRGK(Ac)GGK(Ac)GLGK(Ac)-GGAK(Ac)RHRK-Biotin-OH as substrate incubated for 1 hrs by HTRF assay
Mention the unit after the number when you answer.

Find the measured IC50 of `CCS(=O)(=O)Nc1ccc(Oc2ccc(F)cc2F)c(-c2cn(C)c(=O)cc2OCc2ccccc2)c1` and report it. 0.92 nM

Find the measured IC50 of `CCS(=O)(=O)Nc1ccc(Oc2ccc(F)cc2F)c(-c2cn(C)c(=O)c3cc(-c4cnc(C(C)C)[nH]4)oc23)c1` and report it. 0.54 nM

Find the measured IC50 of `CCS(=O)(=O)Nc1ccc(Oc2ccc(F)cc2F)c(-c2cn(C)c(=O)c3cc(-c4cnc(C)[nH]4)oc23)c1` and report it. 0.76 nM

Find the measured IC50 of `Cc1cc(-c2cc3c(=O)n(C)cc(-c4cc(CO)ccc4Oc4ccc(F)cc4F)c3o2)cc(C)c1OCCO` and report it. 0.98 nM

Find the measured IC50 of `Cc1cc(-c2cc3c(=O)n(C)cc(-c4cc(NS(C)(=O)=O)ccc4Oc4ccc(F)cc4F)c3o2)cc(C)c1OCCO` and report it. 0.76 nM

More entries:
Find the measured IC50 of `CCC(=O)Nc1ccc(Oc2ccc(F)cc2F)c(-c2cn(C)c(=O)c3cc(-c4cc(C)c(OCCO)c(C)c4)oc23)c1` and report it. 0.72 nM

Find the measured IC50 of `CCS(=O)(=O)Nc1ccc(Oc2ccc(F)cc2F)c(-c2cn(C)c(=O)c3cc(-c4cnc(C5CCC5)[nH]4)oc23)c1` and report it. 0.94 nM

Find the measured IC50 of `CCS(=O)(=O)Nc1ccc(Oc2ccc(F)cc2F)c(-c2cn(C)c(=O)c3cc(-c4cnc[nH]4)oc23)c1` and report it. 0.51 nM

Find the measured IC50 of `CCc1ncc(-c2cc3c(=O)n(C)cc(-c4cc(C(C)(C)O)ccc4Oc4c(C)cc(F)cc4C)c3o2)[nH]1` and report it. 0.6 nM

Find the measured IC50 of `CCc1ncc(-c2cc3c(=O)n(C)cc(-c4cc(NS(=O)(=O)CC)ccc4Oc4ccc(F)cc4F)c3o2)[nH]1` and report it. 0.5 nM

Find the measured IC50 of `Cc1cc(-c2cc3c(=O)n(C)cc(-c4cc(NC(=O)C5CC5)ccc4Oc4ccc(F)cc4F)c3o2)cc(C)c1OCCO` and report it. 3.2 nM

Find the measured IC50 of `Cc1cc(F)cc(C)c1Oc1ccc(C(C)(C)O)cc1-c1cn(C)c(=O)c2cc(-c3cnc(C(C)C)[nH]3)oc12` and report it. 0.68 nM

Find the measured IC50 of `CCS(=O)(=O)Nc1ccc(Oc2ccc(F)cc2F)c(-c2cn(C)c(=O)c3cc(-c4cc(C)c(CCCO)c(C)c4)oc23)c1` and report it. 0.49 nM

Find the measured IC50 of `Cc1cc(F)cc(C)c1Oc1ccc(C(C)(C)O)cc1-c1cn(C)c(=O)c2cc(-c3cnc(C4CCC4)[nH]3)oc12` and report it. 0.52 nM

Find the measured IC50 of `Cc1cc(F)cc(C)c1Oc1ccc(C(C)(C)O)cc1-c1cn(C)c(=O)c2cc(-c3cnc(C4CCOCC4)[nH]3)oc12` and report it. 0.46 nM

Find the measured IC50 of `CCS(=O)(=O)Nc1ccc(Oc2ccc(F)cc2F)c(-c2cn(C)c(=O)c3cc(-c4ccc(CCCO)cc4)oc23)c1` and report it. 0.41 nM
